All values here come from patent US20160250307A1.

# Tested On: HLA-A*24 (human)
# Method: UV-ligand exchange, anti-b2m ELISA; grade: exchange yield >=75%
peptide exchange yield for assorted binders

Below, 3 binders whose answers are already recorded.
{"Binder": "IYLERFPIF", "Quantity Measured": "peptide exchange yield", "Value Measured": "> 75%"}
{"Binder": "SYPTFFPRF", "Quantity Measured": "peptide exchange yield", "Value Measured": "> 75%"}
{"Binder": "VYGLQRNLL", "Quantity Measured": "peptide exchange yield", "Value Measured": "> 75%"}

Input line: Item "AYVNTFHNI" : provide peptide exchange yield
Output line: > 75%
